Tested system: yeast Rce1p (Saccharomyces cerevisiae, UniProt Q03530)
Sequence (Q03530 whole entry): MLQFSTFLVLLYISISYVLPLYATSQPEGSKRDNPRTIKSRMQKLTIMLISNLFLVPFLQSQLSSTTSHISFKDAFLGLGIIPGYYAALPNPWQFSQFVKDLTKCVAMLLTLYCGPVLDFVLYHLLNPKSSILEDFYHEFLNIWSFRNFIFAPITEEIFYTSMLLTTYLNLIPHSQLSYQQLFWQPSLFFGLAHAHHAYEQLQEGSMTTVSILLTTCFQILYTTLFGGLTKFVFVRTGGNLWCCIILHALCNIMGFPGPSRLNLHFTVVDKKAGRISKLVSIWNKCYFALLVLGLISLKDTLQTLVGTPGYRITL
Procedure text: Target specificity: Rce1p activity
Type: biochemical
Assay setup: 100 µM compound; relative to DMSO control = 100%
% Activity Rce1p vs 90%: less than gives 1; not less than gives 0.

Exam item: Strictly below 90%: is that where % Activity Rce1p of `Nc1nc(SCc2ccccc2Cl)cc(C(=O)O)n1` sits?
Marked response: 0

Exam item: Strictly below 90%: is that where % Activity Rce1p of `Cn1ncc2c(NCCc3ccccc3)nc(Cl)nc21` sits?
Marked response: 1

====

Tested system: Ste23p (Saccharomyces cerevisiae, UniProt Q06010)
Sequence (Q06010 1-1027): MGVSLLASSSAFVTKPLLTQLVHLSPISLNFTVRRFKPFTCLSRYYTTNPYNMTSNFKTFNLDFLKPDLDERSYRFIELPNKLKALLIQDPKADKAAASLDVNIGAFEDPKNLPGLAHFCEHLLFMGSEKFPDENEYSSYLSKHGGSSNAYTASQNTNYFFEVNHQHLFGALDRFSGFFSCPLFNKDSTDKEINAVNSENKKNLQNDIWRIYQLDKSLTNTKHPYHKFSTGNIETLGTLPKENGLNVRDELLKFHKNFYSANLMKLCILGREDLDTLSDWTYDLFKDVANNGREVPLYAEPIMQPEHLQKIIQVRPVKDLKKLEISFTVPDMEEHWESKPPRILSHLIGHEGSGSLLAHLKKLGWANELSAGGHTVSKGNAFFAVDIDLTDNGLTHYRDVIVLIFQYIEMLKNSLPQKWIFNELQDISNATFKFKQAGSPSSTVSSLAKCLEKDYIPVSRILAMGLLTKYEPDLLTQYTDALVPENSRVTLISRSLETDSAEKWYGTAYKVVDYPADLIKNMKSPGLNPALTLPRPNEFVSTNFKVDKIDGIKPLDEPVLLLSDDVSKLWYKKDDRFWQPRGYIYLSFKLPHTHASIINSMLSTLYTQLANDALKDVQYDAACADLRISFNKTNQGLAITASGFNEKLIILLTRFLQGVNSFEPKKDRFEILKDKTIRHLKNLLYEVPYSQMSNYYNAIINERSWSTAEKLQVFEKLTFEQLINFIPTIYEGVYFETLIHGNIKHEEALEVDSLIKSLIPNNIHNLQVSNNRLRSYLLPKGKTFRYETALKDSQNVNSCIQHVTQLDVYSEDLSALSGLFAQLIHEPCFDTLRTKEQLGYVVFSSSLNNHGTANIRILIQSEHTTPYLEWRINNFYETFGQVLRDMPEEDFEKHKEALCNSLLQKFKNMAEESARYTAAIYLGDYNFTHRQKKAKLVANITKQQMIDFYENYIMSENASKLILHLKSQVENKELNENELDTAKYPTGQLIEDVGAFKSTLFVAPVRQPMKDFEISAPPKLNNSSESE
Procedure text: Target specificity: Ste23p activity with a-factor–based peptide
Assay type: biochemical, yeast
Assay setup: 100 µM compound; 30 °C; relative to DMSO control = 100%
Readout kind: % Activity Ste23p (%)
Express your answer in %, writing the number without its unit.

Exam item: Item: O=[N+]([O-])/C=C/c1cc2ccccc2[nH]1 [Compound 8] Test system: Ste23p (Saccharomyces cerevisiae, UniProt Q06010) Read-out: % Activity Ste23p Value: ?
Marked response: 80.1

Exam item: Item: O=S(=O)(O)c1cc(O)c2c(O)c(N=Nc3cccc4ccccc34)c(S(=O)(=O)O)cc2c1 [Compound 3] Test system: Ste23p (Saccharomyces cerevisiae, UniProt Q06010) Read-out: % Activity Ste23p Value: ?
Marked response: 90.4

Exam item: Item: Cn1ncc2c(NCCc3ccccc3)nc(Cl)nc21 [Compound 2] Test system: Ste23p (Saccharomyces cerevisiae, UniProt Q06010) Read-out: % Activity Ste23p Value: ?
Marked response: 117.2

Exam item: Item: O=C(CCN1CC2CCC(CC2)C1)c1cccs1 [Compound 6] Test system: Ste23p (Saccharomyces cerevisiae, UniProt Q06010) Read-out: % Activity Ste23p Value: ?
Marked response: 82

Exam item: Item: O=C(O)c1ccc(Oc2nc3ccccc3s2)cc1 [Compound 7] Test system: Ste23p (Saccharomyces cerevisiae, UniProt Q06010) Read-out: % Activity Ste23p Value: ?
Marked response: 102.1

Exam item: Item: Nc1nc(SCc2ccccc2Cl)cc(C(=O)O)n1 [Compound 5] Test system: Ste23p (Saccharomyces cerevisiae, UniProt Q06010) Read-out: % Activity Ste23p Value: ?
Marked response: 103.4

Exam item: Item: O=S(=O)(O)CCCc1cccc2ccccc12 [Compound 1] Test system: Ste23p (Saccharomyces cerevisiae, UniProt Q06010) Read-out: % Activity Ste23p Value: ?
Marked response: 112.0

Source of measurements: paper PMC5901702
